B1: HDV Ribozyme (parent)
chain: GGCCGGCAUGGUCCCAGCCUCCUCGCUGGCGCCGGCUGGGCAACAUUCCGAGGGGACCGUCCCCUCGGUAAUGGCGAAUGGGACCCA

# Variants of: B1
# Assay procedure: self-cleavage, relative activity (ratio to wild type); higher = more cleavage; co-transcriptional
Rule: self-cleavage under 0.4 gives Not fulfilled, otherwise Fulfilled.

{"Mutation string": "G52U U72C", "Qualitative label": "Fulfilled"}
{"Mutation string": "C24A C58U", "Qualitative label": "Fulfilled"}
{"Mutation string": "C41G", "Qualitative label": "Fulfilled"}
{"Mutation string": "A16U G38C", "Qualitative label": "Not fulfilled"}
{"Mutation string": "U69A G76C", "Qualitative label": "Fulfilled"}
{"Mutation string": "G5C C84G", "Qualitative label": "Not fulfilled"}
{"Mutation string": "G39C A83U", "Qualitative label": "Not fulfilled"}
{"Mutation string": "C49G G68U", "Qualitative label": "Fulfilled"}
{"Mutation string": "A51G U69A", "Qualitative label": "Fulfilled"}
{"Mutation string": "U46C C75G", "Qualitative label": "Fulfilled"}
{"Mutation string": "U20C G52C", "Qualitative label": "Not fulfilled"}
{"Mutation string": "G38A G81C", "Qualitative label": "Not fulfilled"}
{"Mutation string": "C33U", "Qualitative label": "Fulfilled"}
{"Mutation string": "G54U U60A", "Qualitative label": "Fulfilled"}
{"Mutation string": "C21U G74U", "Qualitative label": "Not fulfilled"}
{"Mutation string": "G55A C86G", "Qualitative label": "Fulfilled"}
{"Mutation string": "G11C A42U", "Qualitative label": "Not fulfilled"}
{"Mutation string": "C22A U47A", "Qualitative label": "Not fulfilled"}
{"Mutation string": "A16C U46C", "Qualitative label": "Fulfilled"}
{"Mutation string": "U72G G73C", "Qualitative label": "Fulfilled"}
{"Mutation string": "G11C C86G", "Qualitative label": "Not fulfilled"}
